- Measurement target: factor Xa (Homo sapiens)
- Sequence (P00742 235-488 limits assumed): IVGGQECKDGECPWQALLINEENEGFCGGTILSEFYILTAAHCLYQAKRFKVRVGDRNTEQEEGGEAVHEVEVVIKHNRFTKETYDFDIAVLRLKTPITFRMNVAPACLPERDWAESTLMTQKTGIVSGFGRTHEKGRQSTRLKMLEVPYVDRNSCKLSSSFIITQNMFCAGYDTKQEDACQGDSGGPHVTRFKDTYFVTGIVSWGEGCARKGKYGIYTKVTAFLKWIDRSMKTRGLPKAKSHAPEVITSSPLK
- Sequence (P00742 41-179 partner limits assumed): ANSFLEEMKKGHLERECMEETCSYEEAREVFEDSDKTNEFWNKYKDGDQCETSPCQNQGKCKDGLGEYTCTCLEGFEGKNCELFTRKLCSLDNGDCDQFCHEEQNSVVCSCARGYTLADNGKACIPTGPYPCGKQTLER
Note to self: use true only for IC50 readings below 20 nM; a reading exactly at 20 nM still gets false.

Look over these answered cases.
1. CC(C)COC(=O)Cn1c(=O)n(Cc2ccc3ccc(C(=N)N)cc3c2)c2cc(OC3CCN(C(=N)N)CC3)ccc21 | true
2. CC(=N)N1CCC(Oc2ccc3c(c2)n(Cc2ccc4ccc(C(=N)N)cc4c2)c(=O)n3CC(=O)O)CC1 | true
3. CCn1c(Cn2c(=O)[nH]c3ccc(OC4CCN(C(C)=N)CC4)cc32)cc2ccc(C(=N)N)cc21 | false

IN: Quick check: IC50 of `N=C(N)c1ccc(Cn2c(=O)[nH]c3ccc(OC4CCN(C(=N)N)CC4)cc32)cc1` under 20 nM?
OUT: false

IN: Quick check: IC50 of `CC(C)n1c(=O)n(Cc2ccc3ccc(C(=N)N)cc3c2)c2cc(OC3CCN(C(=N)N)CC3)ccc21` under 20 nM?
OUT: false

---

For TRYPSIN (Bos taurus), measured pIC50 is reported for the entries below.
In simple prose, pIC50 is minus the logarithm base ten of a concentration in moles per litre.

1) CC(=N)N1CCC(Oc2ccc3c(c2)n(Cc2ccc4ccc(C(=N)N)cc4c2)c(=O)n3C)CC1 [Example 6] | 7.25

IN: Check TRYPSIN (Bos taurus) data and give pIC50 for CC(=N)N1CCC(Oc2ccc3c(c2)n(Cc2ccc4ccc(C(=N)N)cc4c2)c(=O)n3C(C)C)CC1 [Example 8] .
OUT: 6.46

IN: Check TRYPSIN (Bos taurus) data and give pIC50 for CC(=N)N1CCC(Oc2ccc3c(c2)n(Cc2ccc4ccc(C(=N)N)cc4c2)c(=O)n3CC(=O)OCC(C)C)CC1 [Example 12] .
OUT: 7.09

IN: Check TRYPSIN (Bos taurus) data and give pIC50 for N=C(N)c1ccc(Cn2c(=O)[nH]c3ccc(OC4CCN(C(=N)N)CC4)cc32)cc1 [Example 1] .
OUT: 4.66

---

- Measurement target: prothrombinase complex (Homo sapiens)
- Sequence (P00742 235-488 limits assumed): as the sequence (P00742 235-488 limits assumed) above
- Sequence (P00742 41-179 partner limits assumed): as the sequence (P00742 41-179 partner limits assumed) above
- Sequence (P12259 29-737 partner limits assumed): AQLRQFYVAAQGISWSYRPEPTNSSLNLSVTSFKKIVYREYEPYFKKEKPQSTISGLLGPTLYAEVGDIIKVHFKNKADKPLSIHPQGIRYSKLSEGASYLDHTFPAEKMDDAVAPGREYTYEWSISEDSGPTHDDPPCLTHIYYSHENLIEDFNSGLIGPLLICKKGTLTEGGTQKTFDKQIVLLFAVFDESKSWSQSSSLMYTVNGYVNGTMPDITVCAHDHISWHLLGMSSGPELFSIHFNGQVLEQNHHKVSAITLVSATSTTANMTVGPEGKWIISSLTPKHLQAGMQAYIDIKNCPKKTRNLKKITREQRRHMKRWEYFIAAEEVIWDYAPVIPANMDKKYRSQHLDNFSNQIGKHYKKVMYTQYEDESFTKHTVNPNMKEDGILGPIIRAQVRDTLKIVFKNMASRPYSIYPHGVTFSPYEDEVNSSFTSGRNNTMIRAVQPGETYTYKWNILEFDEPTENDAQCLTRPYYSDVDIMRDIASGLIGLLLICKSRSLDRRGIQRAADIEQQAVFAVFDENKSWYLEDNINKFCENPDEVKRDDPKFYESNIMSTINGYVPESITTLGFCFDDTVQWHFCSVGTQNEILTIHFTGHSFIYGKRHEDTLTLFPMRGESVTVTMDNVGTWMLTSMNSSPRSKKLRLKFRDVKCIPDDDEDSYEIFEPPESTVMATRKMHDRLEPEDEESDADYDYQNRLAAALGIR
- Sequence (P12259 1574-2224 partner limits assumed): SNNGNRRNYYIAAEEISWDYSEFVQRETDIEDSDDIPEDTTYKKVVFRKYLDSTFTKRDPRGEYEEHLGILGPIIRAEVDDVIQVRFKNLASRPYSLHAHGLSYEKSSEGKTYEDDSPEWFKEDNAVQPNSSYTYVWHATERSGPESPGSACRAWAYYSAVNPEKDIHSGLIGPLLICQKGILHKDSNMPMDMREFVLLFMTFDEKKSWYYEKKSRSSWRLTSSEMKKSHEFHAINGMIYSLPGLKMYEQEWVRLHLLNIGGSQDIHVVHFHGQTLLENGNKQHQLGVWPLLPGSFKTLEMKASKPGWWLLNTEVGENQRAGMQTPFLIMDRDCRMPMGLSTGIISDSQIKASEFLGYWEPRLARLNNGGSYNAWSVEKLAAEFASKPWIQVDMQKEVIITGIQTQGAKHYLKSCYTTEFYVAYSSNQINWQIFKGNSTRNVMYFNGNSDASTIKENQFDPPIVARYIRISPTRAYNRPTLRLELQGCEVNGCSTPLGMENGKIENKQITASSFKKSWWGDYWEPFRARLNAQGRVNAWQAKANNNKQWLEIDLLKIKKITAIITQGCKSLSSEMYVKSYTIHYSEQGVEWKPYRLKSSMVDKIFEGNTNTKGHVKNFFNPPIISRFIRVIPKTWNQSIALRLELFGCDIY
- Assay notes: prothrombinase inhibition assay (IIASE), plasma free system
- Measurement conditions: factor Xa 0.5 nM, factor Va 2 nM, phospholipid, Chromozym TH
Recorded endpoint: pIC50
In simple prose, pIC50 is minus the logarithm base ten of a concentration in moles per litre.

IN: Give the reported pIC50 for this molecule. `N=C(N)c1ccc2ccc(Cn3c(=O)n(CC(=O)O)c4ccc(OC5CCN(C(=N)N)CC5)cc43)cc2c1`
OUT: 5.37

IN: Give the reported pIC50 for this molecule. `CC(=N)N1CCC(Oc2ccc3c(c2)n(Cc2ccc4ccc(C(=N)N)cc4c2)c(=O)n3C(C)C)CC1`
OUT: 6.37

IN: Give the reported pIC50 for this molecule. `CCn1c(Cn2c(=O)[nH]c3ccc(OC4CCN(C(=N)N)CC4)cc32)cc2ccc(C(=N)N)cc21`
OUT: 6.33

IN: Give the reported pIC50 for this molecule. `CC(=N)N1CCC(Oc2ccc3c(c2)n(Cc2ccc4ccc(C(=N)N)cc4c2)c(=O)n3CC(=O)O)CC1`
OUT: 6.32

IN: Give the reported pIC50 for this molecule. `CC(=N)N1CCC(Oc2ccc3[nH]c(=O)n(Cc4ccc5ccc(C(=N)N)cc5c4)c3c2)CC1`
OUT: 7.65

IN: Give the reported pIC50 for this molecule. `Cn1c(=O)n(Cc2ccc3ccc(C(=N)N)cc3c2)c2cc(OC3CCN(C(=N)N)CC3)ccc21`
OUT: 6.40

IN: Give the reported pIC50 for this molecule. `CC(C)n1c(=O)n(Cc2ccc3ccc(C(=N)N)cc3c2)c2cc(OC3CCN(C(=N)N)CC3)ccc21`
OUT: 6.08

IN: Give the reported pIC50 for this molecule. `CC(=N)N1CCC(Oc2ccc3c(c2)n(Cc2ccc4ccc(C(=N)N)cc4c2)c(=O)n3CC(=O)OCC(C)C)CC1`
OUT: 6.99

IN: Give the reported pIC50 for this molecule. `CC(=N)N1CCC(Oc2ccc3c(c2)n(Cc2ccc4ccc(C(=N)N)cc4c2)c(=O)n3C)CC1`
OUT: 6.37

IN: Give the reported pIC50 for this molecule. `CCn1c(Cn2c(=O)[nH]c3ccc(OC4CCN(C(C)=N)CC4)cc32)cc2ccc(C(=N)N)cc21`
OUT: 6.28

IN: Give the reported pIC50 for this molecule. `CC(C)COC(=O)Cn1c(=O)n(Cc2ccc3ccc(C(=N)N)cc3c2)c2cc(OC3CCN(C(=N)N)CC3)ccc21`
OUT: 6.60

---

For APC (Homo sapiens, UniProt P04070), measured IC50 is reported for the entries below.
Reply with the number, then its unit.

Below: 3 compounds and their reported IC50.
1) N=C(N)c1ccc(Cn2c(=O)[nH]c3ccc(OC4CCN(C(=N)N)CC4)cc32)cc1 [Example 1] | 99.2 µM
2) N=C(N)c1ccc2ccc(Cn3c(=O)n(CC(=O)O)c4ccc(OC5CCN(C(=N)N)CC5)cc43)cc2c1 [Example 15] | 49.8 µM
3) CC(=N)N1CCC(Oc2ccc3c(c2)n(Cc2ccc4ccc(C(=N)N)cc4c2)c(=O)n3CC(=O)O)CC1 [Example 14] | 19.3 µM

# input for lookup
IN: Give the reported IC50 for this compound. CC(C)n1c(=O)n(Cc2ccc3ccc(C(=N)N)cc3c2)c2cc(OC3CCN(C(=N)N)CC3)ccc21 [Example 9]
OUT: 1.85 µM

---

- Measurement target: thrombin (Homo sapiens, UniProt P00734)
Recorded endpoint: IC50
Reply with the number, then its unit.

Below: 3 molecules and their reported IC50.
1. CC(C)COC(=O)Cn1c(=O)n(Cc2ccc3ccc(C(=N)N)cc3c2)c2cc(OC3CCN(C(=N)N)CC3)ccc21 | 59.9 µM
2. CC(=N)N1CCC(Oc2ccc3c(c2)n(Cc2ccc4ccc(C(=N)N)cc4c2)c(=O)n3CC(=O)OCC(C)C)CC1 | 264 µM
3. N=C(N)c1ccc(Cn2c(=O)[nH]c3ccc(OC4CCN(C(=N)N)CC4)cc32)cc1 | 333 µM

# input for lookup
IN: Check thrombin (Homo sapiens, UniProt P00734) data and give IC50 for `CC(=N)N1CCC(Oc2ccc3c(c2)n(Cc2ccc4ccc(C(=N)N)cc4c2)c(=O)n3C)CC1` .
OUT: 32.1 µM

---

- Measurement target: UniProtKB P00750
- Sequence (P00750 36-562, species assumed): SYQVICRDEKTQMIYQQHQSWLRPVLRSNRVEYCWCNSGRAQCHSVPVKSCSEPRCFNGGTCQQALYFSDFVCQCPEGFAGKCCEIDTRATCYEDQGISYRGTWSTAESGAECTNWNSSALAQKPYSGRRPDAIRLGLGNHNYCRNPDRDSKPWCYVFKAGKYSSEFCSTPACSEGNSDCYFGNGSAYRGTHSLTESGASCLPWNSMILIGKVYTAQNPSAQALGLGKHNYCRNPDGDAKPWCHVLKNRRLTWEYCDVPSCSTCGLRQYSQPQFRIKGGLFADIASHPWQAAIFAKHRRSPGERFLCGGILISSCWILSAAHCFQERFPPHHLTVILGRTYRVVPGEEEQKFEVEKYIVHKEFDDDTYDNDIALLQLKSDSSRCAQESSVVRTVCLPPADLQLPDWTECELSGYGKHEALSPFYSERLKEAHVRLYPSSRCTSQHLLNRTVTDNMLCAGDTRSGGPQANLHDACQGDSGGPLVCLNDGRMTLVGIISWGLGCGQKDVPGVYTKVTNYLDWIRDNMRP
- Assay notes: TPA protease inhibition assay
- Type: biochemical
Quick list: IC50 per entry.
Give a bare numeral; the unit µM is implied.

1) CC(=N)N1CCC(Oc2ccc3[nH]c(=O)n(Cc4ccc5ccc(C(=N)N)cc5c4)c3c2)CC1 [Example 4] | 101

# input for lookup
IN: Give the reported IC50 for this compound. CC(=N)N1CCC(Oc2ccc3c(c2)n(Cc2ccc4ccc(C(=N)N)cc4c2)c(=O)n3C(C)C)CC1 [Example 8]
OUT: 77.8

---

- Tested on: KALLIKREIN
- Assay notes: kallikrein protease inhibition assay
- Assay type: biochemical
Quick list: IC50 per entry.
Give a bare numeral; the unit nM is implied.

Below: 3 compounds and their reported IC50.
1) N=C(N)c1ccc2ccc(Cn3c(=O)n(CC(=O)O)c4ccc(OC5CCN(C(=N)N)CC5)cc43)cc2c1 [Example 15] | 9220
2) CC(=N)N1CCC(Oc2ccc3c(c2)n(Cc2ccc4ccc(C(=N)N)cc4c2)c(=O)n3C)CC1 [Example 6] | 592
3) CC(C)COC(=O)Cn1c(=O)n(Cc2ccc3ccc(C(=N)N)cc3c2)c2cc(OC3CCN(C(=N)N)CC3)ccc21 [Example 13] | 1250

IN: Give the reported IC50 for this compound. CC(=N)N1CCC(Oc2ccc3[nH]c(=O)n(Cc4ccc5ccc(C(=N)N)cc5c4)c3c2)CC1 [Example 4]
OUT: 508

IN: Give the reported IC50 for this compound. Cn1c(=O)n(Cc2ccc3ccc(C(=N)N)cc3c2)c2cc(OC3CCN(C(=N)N)CC3)ccc21 [Example 7]
OUT: 615

IN: Give the reported IC50 for this compound. CC(=N)N1CCC(Oc2ccc3c(c2)n(Cc2ccc4ccc(C(=N)N)cc4c2)c(=O)n3C(C)C)CC1 [Example 8]
OUT: 349

IN: Give the reported IC50 for this compound. CC(=N)N1CCC(Oc2ccc3c(c2)n(Cc2ccc4ccc(C(=N)N)cc4c2)c(=O)n3CC(=O)OCC(C)C)CC1 [Example 12]
OUT: 1340

IN: Give the reported IC50 for this compound. CC(=N)N1CCC(Oc2ccc3c(c2)n(Cc2ccc4ccc(C(=N)N)cc4c2)c(=O)n3CC(=O)O)CC1 [Example 14]
OUT: 2950

IN: Give the reported IC50 for this compound. N=C(N)c1ccc(Cn2c(=O)[nH]c3ccc(OC4CCN(C(=N)N)CC4)cc32)cc1 [Example 1]
OUT: 9540

IN: Give the reported IC50 for this compound. CC(C)n1c(=O)n(Cc2ccc3ccc(C(=N)N)cc3c2)c2cc(OC3CCN(C(=N)N)CC3)ccc21 [Example 9]
OUT: 392

---

- Measurement target: PLASMIN (Homo sapiens, UniProt P00747)
- Sequence (P00747 581-810 limits assumed, species assumed): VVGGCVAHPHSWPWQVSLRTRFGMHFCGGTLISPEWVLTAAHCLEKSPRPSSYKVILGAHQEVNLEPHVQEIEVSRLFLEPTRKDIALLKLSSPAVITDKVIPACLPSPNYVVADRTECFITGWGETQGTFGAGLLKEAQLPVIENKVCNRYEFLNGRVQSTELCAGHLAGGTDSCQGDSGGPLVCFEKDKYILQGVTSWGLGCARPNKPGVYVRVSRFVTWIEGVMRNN
- Sequence (P00747 97-580 partner limits assumed, species assumed): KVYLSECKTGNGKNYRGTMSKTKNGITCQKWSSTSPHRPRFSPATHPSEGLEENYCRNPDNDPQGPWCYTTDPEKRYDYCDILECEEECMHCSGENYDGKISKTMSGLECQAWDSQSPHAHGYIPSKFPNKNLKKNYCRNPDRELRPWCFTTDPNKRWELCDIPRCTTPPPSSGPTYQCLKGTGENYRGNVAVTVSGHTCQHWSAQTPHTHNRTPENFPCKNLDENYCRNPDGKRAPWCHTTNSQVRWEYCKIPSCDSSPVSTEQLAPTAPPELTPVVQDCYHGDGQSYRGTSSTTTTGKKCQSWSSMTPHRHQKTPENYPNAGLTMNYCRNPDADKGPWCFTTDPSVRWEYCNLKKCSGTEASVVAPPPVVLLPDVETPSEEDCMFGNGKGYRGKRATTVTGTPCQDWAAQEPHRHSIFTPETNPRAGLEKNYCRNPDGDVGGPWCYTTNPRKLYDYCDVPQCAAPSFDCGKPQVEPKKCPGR
- Assay notes: plasmin protease inhibition assay
- Type: biochemical
Recorded endpoint: IC50 (µM)
Give a bare numeral; the unit µM is implied.

Below: 3 molecules and their reported IC50.
1) CC(C)n1c(=O)n(Cc2ccc3ccc(C(=N)N)cc3c2)c2cc(OC3CCN(C(=N)N)CC3)ccc21 | 2.23
2) CC(C)COC(=O)Cn1c(=O)n(Cc2ccc3ccc(C(=N)N)cc3c2)c2cc(OC3CCN(C(=N)N)CC3)ccc21 | 2.71
3) CC(=N)N1CCC(Oc2ccc3c(c2)n(Cc2ccc4ccc(C(=N)N)cc4c2)c(=O)n3CC(=O)O)CC1 | 6.04

IN: Give the reported IC50 for this molecule. `N=C(N)c1ccc2ccc(Cn3c(=O)n(CC(=O)O)c4ccc(OC5CCN(C(=N)N)CC5)cc43)cc2c1`
OUT: 17
